Data credit: ChEMBL document CHEMBL6182870

For each of the compounds below, state its Activity.
- Measured On: Serine/threonine-protein kinase haspin (Homo sapiens)
- Assay: Inhibition of recombinant human haspin kinase domain (470 to 798 residues) extracted from bacteria using histone H3 (1 to 21) peptide as substrate assessed as residual activity at 10 uM incubated for 30 mins in presence of ATP by ADP-Glo kinase assay relative to control
Note: unit % is implicit; provide only the numeric part.

Data request: Please tell me: Activity of `c1cncc(-c2c[nH]c3cc4cnccc4cc23)c1` , system Serine/threonine-protein kinase haspin (Homo sapiens)?
Data returned: 2

Data request: Please tell me: Activity of O=C1CCC(N2C(=O)c3cccc(NCCOCCOCCOCCNC(=O)c4c[nH]c5cc6cnccc6cc45)c3C2=O)C(=O)N1 (stereo not given) , system Serine/threonine-protein kinase haspin (Homo sapiens)?
Data returned: 60

Data request: Please tell me: Activity of O=C1CCC(N2C(=O)c3cccc(NCCOCCOCCOCCn4ccc5cc6ccncc6cc54)c3C2=O)C(=O)N1 (stereo not given) , system Serine/threonine-protein kinase haspin (Homo sapiens)?
Data returned: 83

Data request: Please tell me: Activity of O=C1CCC(N2C(=O)c3cccc(NCCOCCOCCOCCn4cc(-c5cccnc5)c5cc6ccncc6cc54)c3C2=O)C(=O)N1 (stereo not given) , system Serine/threonine-protein kinase haspin (Homo sapiens)?
Data returned: 71

Data request: Please tell me: Activity of O=C1CCC(N2C(=O)c3cccc(NCCOCCOCCOCCn4cc(I)c5cc6ccncc6cc54)c3C2=O)C(=O)N1 (stereo not given) , system Serine/threonine-protein kinase haspin (Homo sapiens)?
Data returned: 100

----------
For each of the compounds below, state its IC50.
- Measured On: Serine/threonine-protein kinase pim-1 (Homo sapiens, UniProt P11309)
- Sequence (P11309 whole entry): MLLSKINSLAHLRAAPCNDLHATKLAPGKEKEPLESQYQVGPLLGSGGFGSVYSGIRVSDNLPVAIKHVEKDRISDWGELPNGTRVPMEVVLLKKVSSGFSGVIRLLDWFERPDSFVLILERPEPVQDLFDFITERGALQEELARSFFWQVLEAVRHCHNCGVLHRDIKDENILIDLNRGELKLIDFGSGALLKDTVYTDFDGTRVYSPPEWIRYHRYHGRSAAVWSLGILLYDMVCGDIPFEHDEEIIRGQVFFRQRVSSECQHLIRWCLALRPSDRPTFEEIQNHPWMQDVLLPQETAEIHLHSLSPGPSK
- Assay: Inhibition of recombinant human PIM-1 extracted from bacteria using histone H1 as substrate incubated for 30 mins in presence of ATP by ADP-Glo kinase assay
Express the reported value numerically, then name its unit.

Data request: Consider the compound `c1cncc(-c2c[nH]c3cc4cnccc4cc23)c1` and give its measured IC50.
Data returned: 114 nM

Data request: Consider the compound `Cn1cc(-c2cccnc2)c2cc3ccncc3cc21` and give its measured IC50.
Data returned: 876 nM

Data request: Consider the compound `Cn1cc(-c2ccncc2)c2cc3ccncc3cc21` and give its measured IC50.
Data returned: 1270 nM

----------
For each of the compounds below, state its EC50 at 48 h.
- Assay: Cytotoxicity against human hTERT-RPE1 cells assessed as effect on cell viability incubated for 48 hrs by MTS assay
- Format: toxicity, cell-based, TERT-RPE1
Note: unit µM is implicit; provide only the numeric part.

Data request: Consider the compound `Cn1cc(-c2cccnc2)c2cc3ccncc3cc21` and give its measured EC50 at 48 h.
Data returned: 17.8

Data request: Consider the compound `c1cncc(-c2c[nH]c3cc4cnccc4cc23)c1` and give its measured EC50 at 48 h.
Data returned: 18.2

Data request: Consider the compound `Cn1cc(-c2ccncc2)c2cc3ccncc3cc21` and give its measured EC50 at 48 h.
Data returned: 2.3

----------
- Measured On: Serine/threonine-protein kinase haspin (Homo sapiens)
- Sequence (whole entry): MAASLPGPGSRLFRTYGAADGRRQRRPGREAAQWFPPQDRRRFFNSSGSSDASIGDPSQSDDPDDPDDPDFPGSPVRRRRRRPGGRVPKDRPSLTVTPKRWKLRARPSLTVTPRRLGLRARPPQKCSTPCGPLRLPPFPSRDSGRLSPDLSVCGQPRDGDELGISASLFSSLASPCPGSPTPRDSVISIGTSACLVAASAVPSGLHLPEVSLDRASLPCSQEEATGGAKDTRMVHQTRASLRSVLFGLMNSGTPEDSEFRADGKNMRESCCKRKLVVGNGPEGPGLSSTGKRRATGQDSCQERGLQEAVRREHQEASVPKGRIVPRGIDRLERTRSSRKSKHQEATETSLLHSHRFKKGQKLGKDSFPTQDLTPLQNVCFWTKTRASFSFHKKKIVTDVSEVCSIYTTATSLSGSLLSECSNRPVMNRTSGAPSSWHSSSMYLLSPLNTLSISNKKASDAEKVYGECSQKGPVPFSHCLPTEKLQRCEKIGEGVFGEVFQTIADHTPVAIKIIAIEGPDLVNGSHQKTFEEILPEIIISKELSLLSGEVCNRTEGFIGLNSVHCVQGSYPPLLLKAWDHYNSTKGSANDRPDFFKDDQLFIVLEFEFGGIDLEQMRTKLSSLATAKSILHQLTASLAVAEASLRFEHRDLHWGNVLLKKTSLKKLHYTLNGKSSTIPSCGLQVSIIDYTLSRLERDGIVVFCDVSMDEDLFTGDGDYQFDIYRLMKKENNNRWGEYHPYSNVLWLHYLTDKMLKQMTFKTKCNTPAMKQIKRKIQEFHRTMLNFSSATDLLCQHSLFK
- Assay: Inhibition of recombinant human haspin kinase domain (470 to 798 residues) extracted from bacteria using histone H3 (1 to 21) peptide as substrate assessed as residual activity at 10 uM incubated for 30 mins in presence of ATP by ADP-Glo kinase assay relative to control
For each of the molecules below, state its Activity.

Data request: Consider the molecule `c1cc2cc3c(cc2cn1)NCC3` and give its measured Activity.
Data returned: 28%

Data request: Consider the molecule `c1ccc(-c2c[nH]c3cc4cnccc4cc23)nc1` and give its measured Activity.
Data returned: 3%

Data request: Consider the molecule `Cn1cc(-c2ccccn2)c2cc3ccncc3cc21` and give its measured Activity.
Data returned: 7%

Data request: Consider the molecule `Cn1cc(-c2ccncc2)c2cc3ccncc3cc21` and give its measured Activity.
Data returned: 5%

----------
- Measured On: UniProt P49841
- Sequence (P49841 whole entry, looked up): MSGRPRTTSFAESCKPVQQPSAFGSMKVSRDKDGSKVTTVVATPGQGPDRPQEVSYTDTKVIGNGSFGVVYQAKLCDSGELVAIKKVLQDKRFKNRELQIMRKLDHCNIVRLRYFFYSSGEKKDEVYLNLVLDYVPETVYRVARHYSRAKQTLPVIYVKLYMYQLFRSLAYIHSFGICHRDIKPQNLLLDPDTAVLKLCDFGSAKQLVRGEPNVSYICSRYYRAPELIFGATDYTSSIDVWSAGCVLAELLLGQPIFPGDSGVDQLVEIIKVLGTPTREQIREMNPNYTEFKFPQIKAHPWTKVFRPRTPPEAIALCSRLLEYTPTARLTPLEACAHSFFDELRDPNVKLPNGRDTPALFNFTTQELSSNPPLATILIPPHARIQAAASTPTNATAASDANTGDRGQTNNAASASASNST
- Assay: Inhibition of recombinant human GSK3beta extracted from baculovirus infected Sf9 cells using GS-1 (YRRAAVPPSPSLSRHSSPHQSpEDEEE) peptide as substrate assessed as enzyme residual activity at 10 uM incubated for 30 mins in presence of ATP by ADP-Glo kinase assay relative to control
Okay, here is how we bin by Activity: group A = under 70%, group B = from 70% up to 80%, group C = 80% and over

Data request: Pick a category. Item: O=C1CCC(N2C(=O)c3cccc(NCCOCCOCCOCCn4cc(-c5cccnc5)c5cc6ccncc6cc54)c3C2=O)C(=O)N1 (stereo unspecified)
Data returned: group B

Data request: Pick a category. Item: `Cn1cc(-c2cccnc2)c2cc3ccncc3cc21`
Data returned: group A

Data request: Pick a category. Item: `Cn1cc(-c2ccncc2)c2cc3ccncc3cc21`
Data returned: group C

Data request: Pick a category. Item: O=C1CCC(N2C(=O)c3cccc(NCCOCCOCCOCCNC(=O)c4c[nH]c5cc6cnccc6cc45)c3C2=O)C(=O)N1 (stereo unspecified)
Data returned: group C

Data request: Pick a category. Item: `c1cc2c(ccc3cc[nH]c32)cn1`
Data returned: group B

Data request: Pick a category. Item: `c1cncc(-c2c[nH]c3cc4cnccc4cc23)c1`
Data returned: group A

Data request: Pick a category. Item: `Cn1cc(-c2ccccn2)c2cc3ccncc3cc21`
Data returned: group A

----------
For each of the molecules below, state its IC50.
- Measured On: Dual specificity tyrosine-phosphorylation-regulated kinase 1A (Rattus norvegicus, UniProt Q63470)
- Assay: Inhibition of recombinant rat DYRK1A kinase domain (1 to 499 residues) extracted from bacteria using KKISGRLSPIMTEQ as substrate incubated for 30 mins in presence of ATP by ADP-Glo kinase assay
Note: unit µM is implicit; provide only the numeric part.

Data request: Consider the molecule `c1ccc(-c2c[nH]c3cc4cnccc4cc23)nc1` and give its measured IC50.
Data returned: 0.159

Data request: Consider the molecule `c1cncc(-c2c[nH]c3cc4cnccc4cc23)c1` and give its measured IC50.
Data returned: 0.602

Data request: Consider the molecule `Cn1cc(-c2cccnc2)c2cc3ccncc3cc21` and give its measured IC50.
Data returned: 0.498

Data request: Consider the molecule `Cn1cc(-c2ccncc2)c2cc3ccncc3cc21` and give its measured IC50.
Data returned: 0.339

----------
- Measured On: Dual specificity protein kinase CLK1 (Mus musculus, UniProt P22518)
- Sequence (P22518 whole entry): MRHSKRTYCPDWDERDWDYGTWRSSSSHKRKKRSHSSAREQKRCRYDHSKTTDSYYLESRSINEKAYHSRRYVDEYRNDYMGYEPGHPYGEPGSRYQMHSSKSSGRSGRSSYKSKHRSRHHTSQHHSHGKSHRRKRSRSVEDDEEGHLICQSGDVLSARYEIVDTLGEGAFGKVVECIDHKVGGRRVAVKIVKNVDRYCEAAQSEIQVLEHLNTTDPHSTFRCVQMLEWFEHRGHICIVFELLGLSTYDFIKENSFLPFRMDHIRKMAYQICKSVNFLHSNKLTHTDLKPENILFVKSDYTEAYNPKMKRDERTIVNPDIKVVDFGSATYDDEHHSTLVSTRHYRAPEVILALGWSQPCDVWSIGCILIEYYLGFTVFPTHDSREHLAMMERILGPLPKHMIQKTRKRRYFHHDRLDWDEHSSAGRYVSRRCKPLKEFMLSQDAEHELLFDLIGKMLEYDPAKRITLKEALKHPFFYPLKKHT
- Assay: Inhibition of recombinant mouse CLK1 extracted from bacteria using GRSRSRSRSRSR as substrate incubated for 30 mins in presence of ATP by ADP-Glo kinase assay
For each of the molecules below, state its IC50.
Note: unit nM is implicit; provide only the numeric part.

Data request: Please tell me: IC50 of `c1ccc(-c2c[nH]c3cc4cnccc4cc23)nc1` , system Dual specificity protein kinase CLK1 (Mus musculus, UniProt P22518)?
Data returned: 387

Data request: Please tell me: IC50 of `Cn1cc(-c2ccncc2)c2cc3ccncc3cc21` , system Dual specificity protein kinase CLK1 (Mus musculus, UniProt P22518)?
Data returned: 546

Data request: Please tell me: IC50 of `Cn1cc(-c2cccnc2)c2cc3ccncc3cc21` , system Dual specificity protein kinase CLK1 (Mus musculus, UniProt P22518)?
Data returned: 177

----------
- Measured On: Dual specificity tyrosine-phosphorylation-regulated kinase 1A (Rattus norvegicus)
- Assay: Inhibition of recombinant rat DYRK1A kinase domain (1 to 499 residues) extracted from bacteria using KKISGRLSPIMTEQ as substrate assessed as enzyme residual activity at 1 uM incubated for 30 mins in presence of ATP by ADP-Glo kinase assay relative to control
Observed Property: Activity (%)
Note: unit % is implicit; provide only the numeric part.

Data request: Consider the molecule O=C1CCC(N2C(=O)c3cccc(NCCOCCOCCOCCn4cc(-c5cccnc5)c5cc6ccncc6cc54)c3C2=O)C(=O)N1 (stereo unspecified) and give its measured Activity.
Data returned: 65

Data request: Consider the molecule `Cn1cc(-c2ccccn2)c2cc3ccncc3cc21` and give its measured Activity.
Data returned: 63

Data request: Consider the molecule O=C1CCC(N2C(=O)c3cccc(NCCOCCOCCOCCn4ccc5cc6ccncc6cc54)c3C2=O)C(=O)N1 (stereo unspecified) and give its measured Activity.
Data returned: 100

Data request: Consider the molecule `c1ccc(-c2c[nH]c3cc4cnccc4cc23)nc1` and give its measured Activity.
Data returned: 27

Data request: Consider the molecule `c1cc2c(ccc3cc[nH]c32)cn1` and give its measured Activity.
Data returned: 50

Data request: Consider the molecule O=C1CCC(N2C(=O)c3cccc(NCCOCCOCCOCCNC(=O)c4c[nH]c5cc6cnccc6cc45)c3C2=O)C(=O)N1 (stereo unspecified) and give its measured Activity.
Data returned: 90
